System: Calu-3
Assay: cell viability relative to DMSO; higher = less toxic
Conditions: 72 h; 10 nM

Compound	cell viability (%)
CC(C(=O)O)c1ccc2c(c1)[nH]c1ccc(Cl)cc12 (configuration not stated) [carprofen]	95.5
CCCOC(=O)c1ccccc1 [propyl-benzoate]	90.6
CN1C(=O)OC(C)(C)C1=O [trimethadione]	102
CCC(C/C=C/c1ccccc1)(c1ccccc1)N(C)CC1CC1 (configuration not stated) [igmesine]	104
Cc1cc(-n2c(=O)[nH]c(=O)n(C)c2=O)ccc1Oc1ccc(SC(F)(F)F)cc1 [toltrazuril]	83.1
CC1(C)S[C@@H]2[C@H](NC(=O)C(C(=O)O)c3ccccc3)C(=O)N2[C@H]1C(=O)O (some centres not stated) [carbenicillin]	98.3
CC[C@H](C)[C@@H]1NC(=O)[C@H](Cc2ccc(O)cc2)NC(=O)[C@@H](N)CSSC[C@@H](C(=O)N2CCC[C@H]2C(=O)N[C@@H](CC(C)C)C(=O)NCC(N)=O)NC(=O)[C@H](CC(N)=O)NC(=O)[C@H](CCC(N)=O)NC1=O [oxytocin]	93.8
Nc1ncnc(Nc2ccc(Cl)cc2)n1 [chlorazanil]	101
CC(C)(C)c1ccc(/C=C/C(=O)Nc2ccc3c(c2)OCCO3)cc1 [AMG-9810]	98.3
CC[N+](CC)(CCCNC1=CC(=O)C(NCCC[N+](CC)(CC)Cc2ccccc2)=CC1=O)Cc1ccccc1 [benzoquinonium-dibromide]	92.9
CCCCCCCCCCCCCCCC(=O)OC(CC(=O)[O-])C[N+](C)(C)C (configuration not stated) [palmitoylcarnitine]	94.3
C#Cc1cccc(Nc2ncnc3cc(OC)c(OCCCCCCC(=O)NO)cc23)c1 [CUDC-101]	98.8
Cc1c(I)c(=O)n(-c2ccccc2)n1C [iodoantipyrine]	106
CC(C)Cn1cnc2c1c(=O)n(C)c(=O)n2C [isbufylline]	88.5
CC(C)(C)c1ccc(CN2CCN(C(c3ccccc3)c3ccc(Cl)cc3)CC2)cc1 (configuration not stated) [buclizine]	98.3
NC(N)=Nc1nc(CSCCN/C=N/S(=O)(=O)c2ccc(Br)cc2)cs1 [ebrotidine]	101
O=C(CNC(=O)c1cccc(C(F)(F)F)c1)N[C@@H]1CCN(Cc2ccc(Cl)cc2)C1 [teijin-compound-1]	98.8
COc1ccc2c(NC(=O)Nc3cccc(C(F)(F)F)n3)ccnc2c1	99
CCCCCNC(=N)N/N=C/c1c[nH]c2ccc(OC)cc12 [tegaserod]	96.3
NC(=O)c1cnc(N[C@@H]2CCCC[C@@H]2N)nc1Nc1cccc(-n2nccn2)c1	94.5
N#Cc1ccccc1OCC(O)CNCCNC(=O)Nc1ccccc1 (configuration not stated)	94.7
CS(=O)(=O)c1ccc([C@@H](O)[C@@H](CF)NC(=O)C(Cl)Cl)cc1 [florfenicol]	90.8
CCCn1c(=O)[nH]c(=O)c2nc[nH]c21 [enprofylline]	96.9
C=CCN1CCc2cc(O)c(O)cc2[C@H](c2ccccc2)C1	92
O=c1[nH]ccc2cc(OC3CCNCC3)ccc12	106
O=C(Nc1ccc([N+](=O)[O-])cc1O)Nc1ccccc1Br	98.2
COc1ccccc1C(=O)Nc1cc2c(cc1N1CCCC1)n(C)c(=O)n2C [PFI-4]	104
CC1=NN=C(c2ccc(N)cc2)c2cc3c(cc2C1)OCO3	88.2
O=C(Nc1ccncc1)C(=O)c1cn(Cc2ccc(Cl)cc2)c2ccccc12 [indibulin]	95
O=C(O)c1cc(-c2ccc(F)cc2F)ccc1O [diflunisal]	109
CO[C@H]1O[C@@H]2O[C@@]3(C)CC[C@H]4[C@H](C)CC[C@@H]([C@H]1C)[C@@]24OO3 [artemether]	108
CCOc1nc2cccc(C(=O)O)c2n1Cc1ccc(-c2ccccc2-c2noc(=O)[nH]2)cc1 [azilsartan]	98.2
C[C@H](CS)C(=O)N1CCC[C@H]1C(=O)O [captopril]	111
CC(C)(C)NC[C@H](O)c1ccc(O)cc1Cl [meluadrine]	104
COc1cc(C(=S)N2CCOCC2)cc(OC)c1OC [sulmetozine]	99.4
COc1ccc(CN(C(=O)[C@@H](N)Cc2c(C)cc(C(N)=O)cc2C)[C@@H](C)c2ncc(-c3ccccc3)[nH]2)cc1C(=O)O [eluxadoline]	105
CCOP(=S)(OCC)Oc1cc(C)nc(C(C)C)n1 [dimpylate]	100

Value source: the supplement of paper PMC13380429
